system: ACHN renal; assay: NCI tumour cell line growth inhibition, 48 h
measure.name: TGI (µM)

compound	reading.qualifier	recorded.value
COc1cc(/C=C/C(=O)c2c(C)nc3ccccc3c2C)ccc1OCCCOc1cc2c(cc1OC)C(=O)N1CCC[C@H]1C=N2	=	0.106
N#C/C(=C\c1cc(Cl)cc(Cl)c1)c1ccccn1	>	100
CC(=C(C(N)=O)C(N)=O)C1C=C(c2cccs2)CC(c2ccc(Cl)cc2)=C1O (stereo unspecified)	>	100
NCCCNC1(c2cc3ccccc3s2)CCCCC1	=	24.4
O=C(NCc1ccc(Cn2c(=O)sn(-c3ccccc3)c2=O)cc1)OCc1ccc2c(Br)cc(Br)c(O)c2n1	=	0.927
Cc1cccc2c(=O)c3c(sc12)c(NCCNCCO)nc1ccccc13	=	2.83
COC(=O)CCCC(=O)O	>	100
COc1cc(OC)c(/C=C/c2cnc3ccccc3n2)c(OC)c1	>	10
O=C1/C(=C/c2ccccc2O)N=C(c2ccccc2)N1c1nc2ccccc2s1	=	64.3
CNC(=O)N(C)COC	>	100
CCSc1cc(=O)n(C)c(=O)n1C	>	100

====

tested on: OVCAR-3 ovarian; assay: NCI tumour cell line growth inhibition, 48 h
Listing: TGI of selected compounds

compound	target.of.assay	TGI
O=C(/C=C/c1cc(O)c(O)cc1O)OCCc1ccccc1	OVCAR-3 ovarian	15.7 µM
CC1OC(O[C@H]2C3C=CO[C@@H](OC4OC(CO)C(O)C(O)C4O)C3[C@@]3(COC(=O)/C=C/c4ccc(O)cc4)O[C@@H]23)C(O)C(O)C1O (some centres not stated)	OVCAR-3 ovarian	> 100 µM
COCOc1c(C(O[Si](C)(C)C(C)(C)C)c2cnc(Sc3ccccc3)n2C)ccc(OC)c1OC (configuration not stated)	OVCAR-3 ovarian	3.22 µM
COc1ccc(/C(C#N)=C/c2ccc(OC)c(OC)c2)cc1	OVCAR-3 ovarian	> 100 µM
COc1ccc(/C=C2\CCC(CNc3ccc(OC)cc3)C2=O)cc1 (configuration not stated)	OVCAR-3 ovarian	31.6 µM
c1csc(-c2cc(-c3cccs3)c(-c3cccs3)s2)c1	OVCAR-3 ovarian	> 100 µM
CC(=C(C(N)=O)C(N)=O)C1C=C(c2cccs2)CC(c2ccc(Cl)cc2)=C1O (configuration not stated)	OVCAR-3 ovarian	> 100 µM
Cc1cc(NC[C@H](O)[C@H](O)[C@H](O)CO)c(Sc2cc(=O)[nH]c(=O)[nH]2)cc1C	OVCAR-3 ovarian	> 62.5 µM
CCCCNC(=S)Nc1nc(C(=O)NNC(=S)NC2CCCCC2)cs1	OVCAR-3 ovarian	> 100 µM
CC1C2CC(C(S(=O)(=O)N3CCOCC3)/C2=N\O)C1(C)C (configuration not stated)	OVCAR-3 ovarian	> 100 µM
CCC1CN2CCc3c([nH]c4ccccc34)C2C[C@@H]1CC(=O)N(C)C (some centres not stated)	OVCAR-3 ovarian	> 100 µM
N=c1c2c(-c3ccccc3)c[nH]c2ncn1N	OVCAR-3 ovarian	> 100 µM
CCSc1cc(=O)n(C)c(=O)n1C	OVCAR-3 ovarian	> 100 µM
NC(=O)c1cc(-c2ccc(F)cc2)cc(-c2ccncc2)c1N	OVCAR-3 ovarian	> 25 µM
Cc1ccc(O)c(-c2cc(-c3cccc(Cl)c3)c(C#N)c(N)n2)c1	OVCAR-3 ovarian	> 100 µM
O=[N+]([O-])c1c(Br)sc(Br)c1[N+](=O)[O-]	OVCAR-3 ovarian	3.2 µM
CS(=O)(=O)N(N(CCCl)S(=O)(=O)c1ccccc1)S(C)(=O)=O	OVCAR-3 ovarian	> 100 µM
N#Cc1c(N)nc(N2CCOCC2)c(C#N)c1-c1cccnc1	OVCAR-3 ovarian	89.7 µM
Nc1nc(-c2ccc(F)cc2)c(-c2ccc3ncccc3n2)s1	OVCAR-3 ovarian	> 25 µM
O=c1[nH]c(=O)n(C2CC(O)C(CO)O2)cc1C1=NC1 (configuration not stated)	OVCAR-3 ovarian	> 100 µM
COc1cc(Nc2ccnc(NCCCNc3ccnc4cc(Cl)ccc34)n2)cc(OC)c1	OVCAR-3 ovarian	4.32 µM
Nc1nc(-c2ccccc2)nc2c1[n+]([O-])c1ccccc1[n+]2[O-]	OVCAR-3 ovarian	> 100 µM
O=C(O)c1cnc2[nH]ccn2c1=O	OVCAR-3 ovarian	> 100 µM
Cc1cc(Cl)ccc1NC(=O)c1cc2ccccc2cc1O	OVCAR-3 ovarian	> 34.9 µM
CCN1CCN(c2nc3ccc([N+](=O)[O-])cc3nc2C(=O)c2ccccc2)CC1	OVCAR-3 ovarian	30.6 µM
C[C@@H](CO)[C@@H]1CCC=C2CC[C@]3(C)[C@H](CC[C@@H]4[C@@]5(C)CCCNC(C)(C)[C@@H]5CC[C@]43C)[C@H]21	OVCAR-3 ovarian	4.87 µM
COC(=O)c1ccc(C)cc1/C=C1\Cc2ccc(C)cc2C1=O	OVCAR-3 ovarian	31.2 µM
CCNC(=O)c1cc2c(-c3cc(C(C)(C)O)ccc3Oc3c(C)cc(F)cc3C)cn(C)c(=O)c2[nH]1	OVCAR-3 ovarian	11.9 µM
NCCCNC1(c2cc3ccccc3s2)CCCCC1	OVCAR-3 ovarian	22.6 µM
O=C1CCC(=O)N1n1c(Cc2ccc(Cl)cc2)n[nH]c1=O	OVCAR-3 ovarian	> 100 µM
O=C(O)c1cn2c3c(cc(N4CCN(CCO)CC4)cc3c1=O)SCC2	OVCAR-3 ovarian	> 100 µM
O=C(NP(=O)(N1CC1)N1CC1)c1cc(I)ccc1I	OVCAR-3 ovarian	86.6 µM

====

Readings of TGI for the listed molecules
test system: M19-MEL melanoma; experiment: NCI tumour cell line growth inhibition, 48 h
measure.name: TGI

molecule	target.of.assay	measure.name	recorded.value
C1CCN(c2nc(=[N+]3CCCCC3)ss2)CC1	M19-MEL melanoma	TGI	> 100 µM
CC1C[C@@H]2C(=O)NC(=O)[C@@H]2c2c1c1ccccc1n2C (stereo partly drawn)	M19-MEL melanoma	TGI	> 100 µM
CC(C)C(C)C(C)(C)P(C)(C)=O (stereo not drawn)	M19-MEL melanoma	TGI	> 100 µM
CCOC(=O)C1=C(C)N(c2ccc(C)cc2)C2=C(C(=O)N(c3ccccc3)C2c2ccccc2)C1c1ccccc1 (stereo not drawn)	M19-MEL melanoma	TGI	> 25 µM
O=[N+]([O-])c1cccc(-c2oc(C=Nc3ccccc3)c([N+](=O)[O-])c2-c2cccc([N+](=O)[O-])c2)c1	M19-MEL melanoma	TGI	> 100 µM
CS(=O)(=O)N(N(CCCl)S(=O)(=O)c1ccccc1)S(C)(=O)=O	M19-MEL melanoma	TGI	> 100 µM
S=c1cc(S)sc2c1c(=S)sc1nc3ccccn3c(=S)c12	M19-MEL melanoma	TGI	> 100 µM
CN1CCC(CN2c3ccccc3Sc3ccccc32)CC1	M19-MEL melanoma	TGI	26.4 µM
O=CC[C@H]1CCc2ccccc2C12CCC(=O)CC2	M19-MEL melanoma	TGI	> 100 µM
O=C(Cc1nc2ccccc2s1)Nc1cccc(C(F)(F)F)c1	M19-MEL melanoma	TGI	25.6 µM
COC(=O)c1c(N)n[nH]c1N	M19-MEL melanoma	TGI	> 100 µM
O=C(Cn1ccnc1[N+](=O)[O-])c1ccc(F)cc1	M19-MEL melanoma	TGI	> 100 µM
NCCCNCCCCN(CCCN)/[N+]([O-])=N\O	M19-MEL melanoma	TGI	> 100 µM

====

tested on: HT29 colon; test: NCI tumour cell line growth inhibition, 48 h
In this section we review reported GI50 values for a set of compounds.

molecular.string	target.of.assay	GI50
O=[N+]([O-])c1c(Br)sc(Br)c1[N+](=O)[O-]	HT29 colon	1.7 µM
O=C(Nc1ccccc1)NS(=O)(=O)c1ccc(-n2nc3c(c2-c2ccc(Cl)cc2)Cc2ccccc2-3)cc1	HT29 colon	29.8 µM
CC(=O)O[C@]1(C(C)=O)CC[C@H]2[C@@H]3C=C(C)C4=CC(=O)CC[C@]4(C)[C@H]3CC[C@@]21C	HT29 colon	> 100 µM
O=C1/C(=C/c2ccc(Cl)cc2)N=C(c2ccccc2)N1CCc1cccs1	HT29 colon	20.3 µM
Cc1cc(Cl)ccc1NC(=O)c1cc2ccccc2cc1O	HT29 colon	12.3 µM
CN(C)c1ccc(Nc2cc(-c3cccc(OC(F)(F)F)c3)nc3ccc(N4CCCC4)cc23)cc1	HT29 colon	2.18 µM
CC1(C)[C@@H](O[C@@H]2OC[C@@H](O[C@@H]3O[C@H](CO)[C@@H](O)[C@H](O)[C@H]3O[C@@H]3OC[C@@H](O)[C@H](O)[C@H]3O)[C@H](O)[C@H]2O[C@@H]2O[C@H](CO)[C@@H](O)[C@H](O)[C@H]2O)CC[C@]2(C)[C@H]3CC[C@]45OC[C@@]6(CC[C@](C)(C=O)C[C@H]64)[C@H](O)C[C@@]5(C)[C@]3(C)CC[C@@H]12	HT29 colon	1.01 µM
Cc1c(COc2cc(OCc3cccc(C#N)c3)c(CN3C[C@H](O)C[C@@H]3C(=O)O)cc2Cl)cccc1-c1ccc2c(c1)OCCO2	HT29 colon	23.2 µM
CCNC(=O)c1cc2c(-c3cc(C(C)(C)O)ccc3Oc3c(C)cc(F)cc3C)cn(C)c(=O)c2[nH]1	HT29 colon	1.12 µM
